Molecular target: ACAT (Oryctolagus cuniculus, UniProt G1SFD9)
Sequence (G1SFD9 1-524): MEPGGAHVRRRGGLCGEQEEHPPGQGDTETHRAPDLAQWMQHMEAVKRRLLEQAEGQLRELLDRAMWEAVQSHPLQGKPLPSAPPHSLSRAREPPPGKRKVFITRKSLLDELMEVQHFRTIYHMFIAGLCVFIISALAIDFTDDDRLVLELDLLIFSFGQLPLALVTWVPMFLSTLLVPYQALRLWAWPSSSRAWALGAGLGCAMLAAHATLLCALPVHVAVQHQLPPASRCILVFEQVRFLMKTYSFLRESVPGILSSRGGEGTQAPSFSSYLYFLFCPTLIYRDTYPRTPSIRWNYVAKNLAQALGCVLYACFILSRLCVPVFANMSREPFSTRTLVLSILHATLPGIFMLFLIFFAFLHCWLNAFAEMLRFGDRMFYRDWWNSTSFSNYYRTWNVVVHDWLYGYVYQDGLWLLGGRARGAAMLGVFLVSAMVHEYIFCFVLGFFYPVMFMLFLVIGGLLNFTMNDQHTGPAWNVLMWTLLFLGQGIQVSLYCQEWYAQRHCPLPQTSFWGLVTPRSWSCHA
pIC50: −log10 of the molar value.
Quantity: pIC50

Smiles Structure: CCCCCNC(=O)Nc1c(C)cccc1OCCCn1cnc(-c2ccccc2)c1C
Observed: 7.00

Smiles Structure: CCCCNC(=O)Nc1c(C)cccc1OCCCn1cnc(-c2ccccc2)c1C(C)C
Observed: 7.06

Smiles Structure: CCCCCNC(=O)Nc1c(C)cccc1OCCCn1cnc(-c2ccccc2)c1Cl
Observed: 7.31

Smiles Structure: CCCCCNC(=O)Nc1c(OCCCn2cnc(-c3ccccc3)c2C)cccc1N(C)C
Observed: 7.37

Smiles Structure: CCCCCCNC(=O)Nc1c(OCCCn2cnc(-c3ccccc3)c2)cccc1N(C)C
Observed: 7.51

Values from patent US5668136A
